# studySystem: Endoplasmin (Homo sapiens)
# measurementProtocol: Inhibition of recombinant Grp94 (unknown origin) assessed as tracer bound at 25 uM after 24 hrs by fluorescence polarization assay relative to control
# Set-up: scale not given: the % may be the effect or the level left
What Activity was measured for each of the following?
Answer with the number, then the unit.

// query So what does the record say about Activity for `CCN(C(=O)CCc1c(Cl)c(O)cc(O)c1C(=O)OC)c1ccccc1` ?
// result 18.6%

// query So what does the record say about Activity for `COC(=O)c1c(O)cc(O)c(Cl)c1CCC(=O)Nc1cccc(-c2ccccc2)c1` ?
// result 46.8%

// query So what does the record say about Activity for `COC(=O)c1c(O)cc(O)c(Cl)c1CCC(=O)Nc1ccccc1C` ?
// result 3.4%

// query So what does the record say about Activity for `COC(=O)c1c(O)cc(O)c(Cl)c1CCC(=O)Nc1ncc(Br)s1` ?
// result 27.7%

// query So what does the record say about Activity for `COC(=O)c1c(O)cc(O)c(Cl)c1CCC(=O)Nc1ccc(C(F)(F)F)cc1` ?
// result 34.5%

// query So what does the record say about Activity for `COC(=O)c1c(O)cc(O)c(Cl)c1CCC(=O)Nc1ccc(Br)cc1Br` ?
// result 50.7%

// query So what does the record say about Activity for `COC(=O)c1c(O)cc(O)c(Cl)c1CCC(=O)Nc1ccccc1C(F)(F)F` ?
// result 13.4%

// query So what does the record say about Activity for `COC(=O)c1c(O)cc(O)c(Cl)c1CCC(=O)Nc1ncccn1` ?
// result 16.7%

// query So what does the record say about Activity for `COC(=O)c1c(O)cc(O)c(Cl)c1CCC(=O)Nc1cccc(O)c1` ?
// result 3.5%

// query So what does the record say about Activity for `COC(=O)c1c(O)cc(O)c(Cl)c1CCC(=O)Nc1ccncc1` ?
// result 34.9%

// query So what does the record say about Activity for `COC(=O)c1c(O)cc(O)c(Cl)c1CCC(=O)Nc1cccc(F)c1` ?
// result 11%

// query So what does the record say about Activity for `COC(=O)c1c(O)cc(O)c(Cl)c1CCC(=O)Nc1cc(Cl)cc(Cl)c1` ?
// result 15.6%

// query So what does the record say about Activity for `C#Cc1ccc(NC(=O)CCc2c(Cl)c(O)cc(O)c2C(=O)OC)cc1` ?
// result 12.7%

// query So what does the record say about Activity for `COC(=O)c1c(O)cc(O)c(Cl)c1CCC(=O)Nc1nccs1` ?
// result 6.6%

// query So what does the record say about Activity for `COC(=O)c1c(O)cc(O)c(Cl)c1CCC(=O)Nc1ccc(Cl)cc1` ?
// result 15.7%
